# System: E. coli TESEC Mtb Asd
# assay info: growth (OD600 after 10 h); higher = more growth (less inhibition)
# measurement parameters: arabinose induction (level): High; compound 0.1 mM; raw OD600 reference: median of DMSO wells 0.331, cell-free background 0.041
Decision: growth compared against 0.4; not below it gives Satisfied, below it gives Not satisfied.

compound="Cc1c(O)c(=O)n(-c2ccccc2)n1C [Antipyrine, 4-hydroxy]" measurement_target="E. coli TESEC Mtb Asd" answer_label="Not satisfied"
compound="NC(=O)c1cccnc1 [Nicotinamide]" measurement_target="E. coli TESEC Mtb Asd" answer_label=Satisfied
compound="Oc1c(I)cc(Cl)c2cccnc12 [Clioquinol]" measurement_target="E. coli TESEC Mtb Asd" answer_label="Not satisfied"
compound="C=C1/C(=C\\C=C2/CCC[C@]3(C)[C@@H]([C@H](C)/C=C/[C@@H](O)C4CC4)CC[C@@H]23)C[C@@H](O)C[C@@H]1O [Calcipotriene]" measurement_target="E. coli TESEC Mtb Asd" answer_label="Not satisfied"
compound="CCOc1ccc2nc(S(N)(=O)=O)sc2c1 [Ethoxzolamide]" measurement_target="E. coli TESEC Mtb Asd" answer_label="Not satisfied"
compound="C[C@]12CC[C@@H]3c4ccc(O)cc4CC[C@H]3[C@@H]1CCC2=O [Estrone]" measurement_target="E. coli TESEC Mtb Asd" answer_label="Not satisfied"
compound="CC(C)(C)CC(C)(C)c1ccc(OCOCCOCCO)c(Cc2cc(C(C)(C)CC(C)(C)C)cc(Cc3cc(C(C)(C)CC(C)(C)C)ccc3OCOCCOCCO)c2OCOCCOCCO)c1 [Tyloxapol]" measurement_target="E. coli TESEC Mtb Asd" answer_label=Satisfied
compound="Cc1cc2cc3c(C)cc(=O)oc3c(C)c2o1 [Trioxsalen]" measurement_target="E. coli TESEC Mtb Asd" answer_label=Satisfied
